target: PD-1/PD-L1 interaction (Homo sapiens); construct: expressed in transfected cells; host or cells: CHO cells (aAPC-PD-L1) co-cultured with Jurkat cells overexpressing PD-1 and an NFAT-luciferase reporter; test: PD-1/PD-L1 NFAT reporter co-culture assay; format: cell-based; details: Jurkat PD-1 NFAT-luciferase cells co-cultured with aAPC-PD-L1 CHO cells, 6 hrs at 37° C.; read-out: EC50 NFAT Luciferase
Sequence (Q9NZQ7 19-290): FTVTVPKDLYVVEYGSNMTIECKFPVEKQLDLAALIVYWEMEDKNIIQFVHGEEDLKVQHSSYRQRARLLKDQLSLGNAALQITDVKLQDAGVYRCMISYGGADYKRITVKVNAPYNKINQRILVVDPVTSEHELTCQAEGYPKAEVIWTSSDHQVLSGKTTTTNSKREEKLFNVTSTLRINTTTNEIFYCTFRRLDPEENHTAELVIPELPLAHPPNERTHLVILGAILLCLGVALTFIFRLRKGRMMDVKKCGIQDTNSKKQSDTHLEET
Please assign rule not met whenever EC50 is at or above 600 nM, and rule met whenever it is below.

compound="COc1nc(-c2cccc(-c3cccc(-c4ccc5c(c4)CCC(N)C5)c3Cl)c2Cl)ccc1CN1CC2(CCC(=O)N2)C1 (centres unmarked)" subject_of_test="PD-1/PD-L1 interaction (Homo sapiens)" class="rule not met"
compound=C[C@@](CO)(NCc1cc(Cl)c(OCc2cccc(-c3cccc(COc4cc(OCc5cncc(C#N)c5)c(CN[C@@](C)(CO)C(=O)O)cc4Cl)c3Br)c2Br)cc1OCc1cncc(C#N)c1)C(=O)O subject_of_test="PD-1/PD-L1 interaction (Homo sapiens)" class="rule met"
compound=Cc1c(COc2cc(OCc3cc(C#N)ccn3)c(CNC[C@@H](O)CC(=O)O)cc2Cl)cccc1-c1cccc(COc2cc(OCc3cc(C#N)ccn3)c(CNC[C@@H](O)CC(=O)O)cc2Cl)c1C subject_of_test="PD-1/PD-L1 interaction (Homo sapiens)" class="rule met"
compound=Cc1c(COc2cc(OCc3cncc(C#N)c3)c(CNC[C@@H](O)CC(=O)O)cc2Cl)cccc1-c1cccc(-n2cc(CN)nn2)c1C subject_of_test="PD-1/PD-L1 interaction (Homo sapiens)" class="rule not met"
compound=Cc1c(COc2nc(OCc3cncc(C#N)c3)c(CNC[C@H](O)CC(=O)O)cc2Br)cccc1-c1cccc(COc2nc(OCc3cncc(C#N)c3)c(CNC[C@H](O)CC(=O)O)cc2Br)c1C subject_of_test="PD-1/PD-L1 interaction (Homo sapiens)" class="rule met"
compound=COc1nc(OCc2cccc(-c3cccc(-c4ccc(CNC[C@@H]5CCC(=O)N5)cc4)c3Cl)c2Cl)c(Br)cc1CNC[C@@H]1CCC(=O)N1 subject_of_test="PD-1/PD-L1 interaction (Homo sapiens)" class="rule met"
compound=Cc1c(COc2nc(OCCc3cc[nH]n3)c(CNC[C@@H](O)CC(=O)O)cc2Br)cccc1-c1cccc(COc2nc(OCCc3cc[nH]n3)c(CNC[C@@H](O)CC(=O)O)cc2Br)c1C subject_of_test="PD-1/PD-L1 interaction (Homo sapiens)" class="rule met"
compound=CCOC(=O)C[C@H](O)CNCc1cc(C2CC2)c(OCc2cccc(-c3cccc(COc4nc(OC)c(CNC[C@@H](O)CC(=O)O)cc4C4CC4)c3C)c2C)nc1OC subject_of_test="PD-1/PD-L1 interaction (Homo sapiens)" class="rule not met"
compound=Cc1c(COc2cc(O)c(CNC[C@@H](F)C(C)(C)O)cc2Cl)cccc1-c1cccc(COc2cc(OCc3cncc(C#N)c3)c(CNC[C@@H](F)C(C)(C)O)cc2Cl)c1C subject_of_test="PD-1/PD-L1 interaction (Homo sapiens)" class="rule not met"
compound=Cc1c(COc2cc(OCc3cncc(C#N)c3)c(CN[C@@](C)(CO)C(=O)O)cc2Cl)cccc1-c1cc(F)cc(-c2ccc(CN(C)C)cc2)c1Cl subject_of_test="PD-1/PD-L1 interaction (Homo sapiens)" class="rule not met"
